The reported measurements were obtained from patent US12180146B2.

# Tested on: spontaneously hypertensive rats (SHR)
# TEST_DETAILS: Antihypertensive activity test: blood pressure and heart rate of spontaneously hypertensive rats (SHR)
# Type: in vivo, rat
# EXPERIMENTAL_CONDITIONS: 200 mg/kg, 3 h
Counter-ions that a name gives are not always drawn.
Entry flag: condition met if Heart rate Difference before and after administration, 3 h reaches 20 beat/min; condition not met if it does not.

MOLECULE | TARGET_OR_SYSTEM | CLASS
COCCc1ccc(OCC(O)CNC(C)C)cc1 (centres unmarked) [Metoprolol Hydrochloride, reference compound] | spontaneously hypertensive rats (SHR) | condition not met
Cc1ccc(C(O)CO)cc1 (centres unmarked) | spontaneously hypertensive rats (SHR) | condition not met
CCc1cccc(C(O)CO)c1 (centres unmarked) | spontaneously hypertensive rats (SHR) | condition met
CCc1ccc(C(O)CO)cc1 (centres unmarked) | spontaneously hypertensive rats (SHR) | condition not met

Now for another entry.
Q. Tell me whether Heart rate Difference before and after administration, 3 h is at least 20 beat/min here: CCC(O)c1cccc(CO)c1 (centres unmarked)
A. condition not met

====

# Test system: monocrotaline-induced pulmonary hypertension model rats (MCT-PAH)
# TEST_DETAILS: Monocrotaline-induced pulmonary hypertension model rats, oral (gavage) treatment for 21 days
# Format: in vivo, SD rats
# EXPERIMENTAL_CONDITIONS: 100 mg/kg
PROPERTY_LABEL: 2 × MT/ED

COMPOUND | TEST_VALUE
COc1cccc(C(O)CO)c1 (stereo not drawn) [Compound 8] | 0.31 ± 0.052
OCC(O)c1cccc(F)c1 (stereo not drawn) [Compound 7] | 0.27 ± 0.045
CCc1cccc(C(O)CO)c1 (stereo not drawn) [Compound 1, 1-(3-ethylphenyl)-1,2-ethylene glycol] | 0.27 ± 0.062
CCc1cccc(C(COC(C)=O)OC(C)=O)c1 (stereo not drawn) [Compound 30] | 0.31 ± 0.021
CCc1cccc(C(CO)OC2OC(CO)C(O)C(O)C2O)c1 (stereo not drawn) [Compound 16] | 0.32 ± 0.066

Next up:
Field 2 × MT/ED (system: monocrotaline-induced pulmonary hypertension model rats (MCT-PAH)) for entry CCc1ccccc1C(O)CO (stereo not drawn) [Compound 5] = 0.29 ± 0.054

====

# Test system: hypoxic pulmonary hypertension model rats
# TEST_DETAILS: Hypoxic pulmonary hypertension model rats, oral (gavage) treatment for 28 days
# Format: in vivo, SD rats
# EXPERIMENTAL_CONDITIONS: hypoxic PAH rats, 200 mg/kg, po
Friendly reminder: RVSP below 60 mmHg is label 1, at or above is label 0.

Example entries and their recorded answers appear below.
MOLECULE | CLASS
OCC(O)c1cccc(F)c1 (stereo not drawn) | label 0
COc1cccc(C(O)CO)c1 (stereo not drawn) | label 0
CCc1cccc(C(CO)OC2OC(CO)C(O)C(O)C2O)c1 (stereo not drawn) | label 0

Q. Field: below-cutoff. Rule: recorded RVSP strictly less than 60 mmHg. Subject: CCc1cccc(C(COC(C)=O)OC(C)=O)c1 (stereo not drawn)
A. label 0

Q. Field: below-cutoff. Rule: recorded RVSP strictly less than 60 mmHg. Subject: CCc1cccc(C(O)CO)c1 (stereo not drawn)
A. label 1

====

Record form. Attribute: SHR heart rate, time after administration 0 h. Fill in for each entry.
# Test system: spontaneously hypertensive rats (SHR)
# TEST_DETAILS: Antihypertensive activity test: blood pressure and heart rate of spontaneously hypertensive rats (SHR)
# Assay type: in vivo, rat
# EXPERIMENTAL_CONDITIONS: 200 mg/kg, 0 h, N = 8
Counter-ions that a name gives are not always drawn.
One number for each entry, in beat/min.

COMPOUND | TARGET_OR_SYSTEM | TEST_VALUE
CCc1ccc(C(O)CO)cc1 (centres unmarked) [Compound 4] | spontaneously hypertensive rats (SHR) | 345

Dear colleague, could you send me SHR heart rate, time after administration 0 h for each of the items below? Thanks.
1. CCC(O)c1cccc(CO)c1 (centres unmarked) [Compound 13]
2. Cc1ccc(C(O)CO)cc1 (centres unmarked) [Compound 12]
3. COCCc1ccc(OCC(O)CNC(C)C)cc1 (centres unmarked) [Metoprolol Hydrochloride, reference compound]

A.
[319, 333, 328]

The compound CCc1cccc(C(O)CO)c1 (centres unmarked) [Compound 1, 1-(3-ethylphenyl)-1,2-ethylene glycol] showed SHR heart rate, time after administration 0 h equal to 356
